Consider the following molecules and their measured TGI readings.
- Test system: NCI-H226 lung
- MEASUREMENT_NOTES: NCI tumour cell line growth inhibition, 48 h
Write the value in µM as a bare number.

# count of solved cases: 10
* CC1=C(CO)C2=C(C)C3(CC3)[C@@](C)(O)C(=O)C2=C1 | 0.528
* CCOC(=O)/C=C(\C(=O)OCC)n1ccc(=O)n(Cc2cn(CCCCOC(C)=O)nn2)c1=O | 32.7
* CN(C)CCNC(=O)c1cccc2ccc(-c3ccc(F)cc3)nc12 | 11.6
* O=C1CCC(=O)c2c1c(O)c1ccncc1c2O | 45.3
* CN(C)C(=S)Sc1ccc([N+](=O)[O-])cc1[N+](=O)[O-] | 17.5
* C(=C\c1ccc(-c2cn3cc(/C=C/C=N/NC4=NCCN4)ccc3n2)cc1)/C=N/NC1=NCCN1 | 3.27
* CSc1ccccc1C#C/C=C\C#Cc1ccccc1N | 52
* Cn1cc(-c2csc(-c3c[nH]c4ccc(Br)cc34)n2)c2cnccc21 | 6
* Cc1nc2ccc(F)cc2c2c1CCN2c1ccc(Cl)cc1 | 72.2
* O=S(=O)(Nc1ccc(Cl)cc1Cl)c1ccc(-c2cnc(C3CC3)o2)cc1 | 31.1

Fill in the blank: the reported TGI of O=[N+]([O-])c1ccc(CI)cc1 is ____. 23.5

Fill in the blank: the reported TGI of COc1cccc2c1C(=O)c1c(O)c3c(c(O)c1C2=O)C[C@@](O)(/C(C)=N/NC(=O)c1ccc(Cl)cc1)C[C@@H]3OC1CC(N)C(O)C(C)O1 (some centres undefined) is ____. 0.897

Fill in the blank: the reported TGI of CCCCC/C=C1\CCC(CN(C)C)C1=O (centres undefined) is ____. 29.5

Fill in the blank: the reported TGI of Oc1ccc(Nc2c3ccccc3nc3occ(Cl)c23)cc1 is ____. 13.5

----------
- Tested on: ACHN renal
- MEASUREMENT_NOTES: NCI tumour cell line growth inhibition, 48 h; in the data active = GI50 below about 0.43 µM; inactive = the rest
Outcomes you can answer with include only these: active, inactive

Below are worked cases with known answers.
• COc1ccc(C(O)(CCC(C)C)C(CN2CCOCC2)c2ccc(Cl)cc2)cc1 (configuration not stated) = inactive
• COC(=O)c1cc2c(s1)-c1nccc3c1c(nc1ccccc13)C2=O = inactive
• O=C1c2cc3c(cc2-c2c1c1cc(Cl)c(Cl)cc1c(=O)n2C[C@H](O)CO)OCO3 = active

Please look at the following compound next.
Hey, what did the test say about COc1ccc(-c2nsc3c2NC(=O)CC3c2cccc(OC)c2)cc1 (configuration not stated) ? inactive

----------
- Tested on: U251 CNS
- MEASUREMENT_NOTES: NCI tumour cell line growth inhibition, 48 h
PROPERTY_MEASURED: TGI

# count of solved cases: 5
- COc1ccc(Cn2c(N)c(S(=O)(=O)c3ccc(Cl)cc3)c3nc(C#N)c(C#N)nc32)cc1: 30.3 µM
- CCOC(=O)c1ccc(N=Nc2cc(C(=O)OCC)ccc2O)cc1: > 100 µM
- CC(=O)OCC1OC(n2c(C)cc(C)c(C#N)c2=S)C(OC(C)=O)C(OC(C)=O)C1OC(C)=O (stereo unspecified): > 100 µM
- Cc1cc(/N=C/c2ccc(F)cc2)n(-c2ccccc2)n1: > 100 µM
- O=c1[nH]c2ccc(O)cc2o1: > 100 µM

Fill in the blank: the reported TGI of CS(=O)(=O)Nc1cc(-c2ccc3ncnc(Nc4c(Cl)ccc5c4OCO5)c3c2)cnc1Cl is ____. 2.63 µM

Fill in the blank: the reported TGI of Oc1ccc(Nc2c3ccccc3nc3occ(Cl)c23)cc1 is ____. > 100 µM

Fill in the blank: the reported TGI of CC(C)=CCc1cc2c(cc1O)OC[C@H]1c3cc4c(cc3O[C@@H]21)OCO4 is ____. > 100 µM

Fill in the blank: the reported TGI of COc1cc(/C=C\c2cc(OC)c(OC)c(OC)c2)cc(N/C=C\C(=O)c2cc(OC)c(OC)c(OC)c2)c1OC is ____. > 100 µM

Fill in the blank: the reported TGI of CC12CCC3c4ccc(O)cc4CCC3C1C/C(=N\O)C2O (stereo unspecified) is ____. > 100 µM

Fill in the blank: the reported TGI of CN(C)CCNC(=O)c1cccc2c(Nc3ccc(S(=O)(=O)N=C(N)N)cc3)c3ccccc3nc12 is ____. 67 µM
